- method: Drug concentration in Sprague-Dawley rat plasma at 30 mg/kg, sc measured after 190 mins
- Type: ADME, organism-based
measured_quantity: concentration at 3.167 h (µM)
Form entry: value (µM) — number only.

### Prompt Input CC(C)C[C@@H](N)C(=O)Nc1ccc(-c2cnco2)c(OC(F)F)c1 , output reported concentration at 3.167 h.
### Response 3.4

###

- measured_on: MAP kinase-interacting serine/threonine-protein kinase 2 (Homo sapiens)
- Sequence (Q9HBH9 whole entry): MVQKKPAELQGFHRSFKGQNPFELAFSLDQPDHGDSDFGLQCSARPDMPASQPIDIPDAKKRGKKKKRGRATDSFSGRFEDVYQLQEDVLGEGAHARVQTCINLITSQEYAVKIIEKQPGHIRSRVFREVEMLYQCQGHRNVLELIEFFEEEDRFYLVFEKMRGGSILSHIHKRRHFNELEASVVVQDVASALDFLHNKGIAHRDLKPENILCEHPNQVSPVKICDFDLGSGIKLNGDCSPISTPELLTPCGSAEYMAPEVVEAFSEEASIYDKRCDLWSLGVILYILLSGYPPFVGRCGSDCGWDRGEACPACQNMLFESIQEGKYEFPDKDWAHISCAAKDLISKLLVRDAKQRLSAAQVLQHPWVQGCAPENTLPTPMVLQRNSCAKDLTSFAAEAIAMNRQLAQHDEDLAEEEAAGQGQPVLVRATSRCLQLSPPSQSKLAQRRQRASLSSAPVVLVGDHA
measured_quantity: IC50 (nM)
Form entry: value (nM) — number only.

### Prompt Under MAP kinase-interacting serine/threonine-protein kinase 2 (Homo sapiens), report IC50 for CC(C)C[C@@H](N)C(=O)Nc1ccc(-c2cnco2)c(OC(F)F)c1
### Response 428

###

- measured_on: Kappa-type opioid receptor (Homo sapiens)
- Sequence (P41145 whole entry): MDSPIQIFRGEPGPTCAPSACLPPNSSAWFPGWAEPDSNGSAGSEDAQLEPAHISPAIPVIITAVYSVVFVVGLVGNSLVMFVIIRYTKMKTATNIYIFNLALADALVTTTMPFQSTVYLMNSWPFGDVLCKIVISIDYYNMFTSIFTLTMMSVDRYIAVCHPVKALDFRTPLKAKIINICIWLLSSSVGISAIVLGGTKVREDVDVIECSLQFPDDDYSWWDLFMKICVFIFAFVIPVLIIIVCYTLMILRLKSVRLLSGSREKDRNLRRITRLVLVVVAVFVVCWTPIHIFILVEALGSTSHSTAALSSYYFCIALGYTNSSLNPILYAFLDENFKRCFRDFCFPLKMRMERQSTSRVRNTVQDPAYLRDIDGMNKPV
measured_quantity: IC50

### Prompt Under Kappa-type opioid receptor (Homo sapiens), report IC50 for CC(C)C[C@@H](N)C(=O)Nc1ccc(-c2cnco2)c(OC(F)F)c1
### Response > 30 µM

###

- measured_on: Serine/threonine-protein kinase haspin (Homo sapiens, UniProt Q8TF76)
- Sequence (Q8TF76 whole entry): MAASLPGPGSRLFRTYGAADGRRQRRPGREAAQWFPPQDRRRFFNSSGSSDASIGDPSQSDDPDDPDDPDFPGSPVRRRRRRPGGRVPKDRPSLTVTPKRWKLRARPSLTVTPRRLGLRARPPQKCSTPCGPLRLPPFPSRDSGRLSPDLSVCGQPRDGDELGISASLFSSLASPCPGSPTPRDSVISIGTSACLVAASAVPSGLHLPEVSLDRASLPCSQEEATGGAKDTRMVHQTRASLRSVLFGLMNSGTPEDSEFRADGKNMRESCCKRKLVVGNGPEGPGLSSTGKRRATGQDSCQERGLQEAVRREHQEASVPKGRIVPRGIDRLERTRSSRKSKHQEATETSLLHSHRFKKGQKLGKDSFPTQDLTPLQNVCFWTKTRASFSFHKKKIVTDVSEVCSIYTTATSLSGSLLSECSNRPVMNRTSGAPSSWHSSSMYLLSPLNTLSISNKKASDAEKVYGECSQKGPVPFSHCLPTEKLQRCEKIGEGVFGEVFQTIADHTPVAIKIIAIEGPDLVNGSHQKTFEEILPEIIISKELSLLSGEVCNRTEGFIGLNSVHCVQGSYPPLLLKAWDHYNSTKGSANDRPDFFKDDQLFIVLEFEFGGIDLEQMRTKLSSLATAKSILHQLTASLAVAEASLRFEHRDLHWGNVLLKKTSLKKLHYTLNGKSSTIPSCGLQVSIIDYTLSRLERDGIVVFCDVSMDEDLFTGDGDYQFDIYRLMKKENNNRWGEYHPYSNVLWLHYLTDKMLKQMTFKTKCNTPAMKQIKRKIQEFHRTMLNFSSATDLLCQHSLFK
measured_quantity: pIC50
Note on pIC50: it is the negative log10 of concentration, concentration in mol/L.

### Prompt Under Serine/threonine-protein kinase haspin (Homo sapiens, UniProt Q8TF76), report pIC50 for CC(C)C[C@@H](N)C(=O)Nc1ccc(-c2cnco2)c(OC(F)F)c1
### Response 6.04

###

- measured_on: UniProt:P35372
- Sequence (P35372 whole entry): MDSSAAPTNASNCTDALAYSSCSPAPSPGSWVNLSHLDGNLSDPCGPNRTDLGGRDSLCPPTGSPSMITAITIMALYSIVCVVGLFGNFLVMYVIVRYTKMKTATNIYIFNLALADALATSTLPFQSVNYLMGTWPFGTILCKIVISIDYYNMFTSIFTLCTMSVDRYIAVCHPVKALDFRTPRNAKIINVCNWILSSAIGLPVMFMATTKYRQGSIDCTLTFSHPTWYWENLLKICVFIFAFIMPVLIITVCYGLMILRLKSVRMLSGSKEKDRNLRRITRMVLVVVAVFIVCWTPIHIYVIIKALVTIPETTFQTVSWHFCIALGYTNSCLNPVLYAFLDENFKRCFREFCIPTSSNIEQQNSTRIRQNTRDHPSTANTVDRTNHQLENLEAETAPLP
pIC50: −log10 of the molar value.
measured_quantity: pIC50

### Prompt Under UniProt:P35372, report pIC50 for CC(C)C[C@@H](N)C(=O)Nc1ccc(-c2cnco2)c(OC(F)F)c1
### Response < 4.52

###

- method: Drug concentration in plasma of Sprague-Dawley rat model of chronic constriction injury-induced neuropathic pain at 3 mg/kg, sc
- Type: ADME, organism-based
- condition_description: in vivo
measured_quantity: concentration (nM)
Form entry: value (nM) — number only.

### Prompt Input CC(C)C[C@@H](N)C(=O)Nc1ccc(-c2cnco2)c(OC(F)F)c1 , output reported concentration.
### Response 1100

###

- method: Drug concentration in brain of Sprague-Dawley rat model of chronic constriction injury-induced neuropathic pain at 30 mg/kg, sc
- Type: ADME, organism-based
- condition_description: in vivo, read-out: Ct
measured_quantity: concentration
Just so you know, I need the unit written after the number.

### Prompt Input CC(C)C[C@@H](N)C(=O)Nc1ccc(-c2cnco2)c(OC(F)F)c1 , output reported concentration.
### Response 33 µM

###

- method: Protein binding in human plasma assessed as unbound fraction at 10 uM measured after 5 hrs by equilibrium dialysis method
In this section we review reported fraction unbound at 5 h, 10 µM values for a set of compounds.
Answer using only a numeral; do not append any unit.

Answered examples (3):
structure_smiles_string: COc1cc(NC(=O)[C@H](N)CC(C)C)ccc1-c1cn[nH]c1
result_number: 0.18
--
structure_smiles_string: CC(C)C[C@@H](N)C(=O)Nc1ccc(-c2cnco2)c(OC(F)F)c1
result_number: 0.038
--
structure_smiles_string: COc1cc(NC(=O)[C@H](N)CC(C)C)ccc1-c1cnco1
result_number: 0.063

# ---- query compound ----
### Prompt Input COc1cc(NC(=O)[C@@H]2NCCC[C@@H]2C(C)C)ccc1-c1cnco1 , output reported fraction unbound at 5 h, 10 µM.
### Response 0.19

###

- method: Protein binding in mouse plasma assessed as unbound fraction at 10 uM measured after 5 hrs by equilibrium dialysis method
measured_quantity: fraction unbound at 5 h, 10 µM
Answer using only a numeral; do not append any unit.

structure_smiles_string: COc1cc(NC(=O)[C@H](N)CC(C)C)ccc1-c1cn[nH]c1
fraction unbound at 5 h, 10 µM: 0.2
--
structure_smiles_string: COc1cc(NC(=O)[C@H](N)CC(C)C)ccc1-c1cnco1
fraction unbound at 5 h, 10 µM: 0.086

### Prompt Input CC(C)C[C@@H](N)C(=O)Nc1ccc(-c2cnco2)c(OC(F)F)c1 , output reported fraction unbound at 5 h, 10 µM.
### Response 0.041

### Prompt Input COc1cc(NC(=O)[C@@H]2NCCC[C@@H]2C(C)C)ccc1-c1cnco1 , output reported fraction unbound at 5 h, 10 µM.
### Response 0.028

###

- method: Drug concentration in brain of Sprague-Dawley rat model of chronic constriction injury-induced neuropathic pain at 1 mg/kg, sc
- Type: ADME, organism-based
- condition_description: in vivo, read-out: Ct
measured_quantity: concentration (nM)
Form entry: value (nM) — number only.

### Prompt Input CC(C)C[C@@H](N)C(=O)Nc1ccc(-c2cnco2)c(OC(F)F)c1 , output reported concentration.
### Response 350

###

- measured_on: AP2-associated protein kinase 1 (Homo sapiens, UniProt Q2M2I8)
- Sequence (Q2M2I8 whole entry): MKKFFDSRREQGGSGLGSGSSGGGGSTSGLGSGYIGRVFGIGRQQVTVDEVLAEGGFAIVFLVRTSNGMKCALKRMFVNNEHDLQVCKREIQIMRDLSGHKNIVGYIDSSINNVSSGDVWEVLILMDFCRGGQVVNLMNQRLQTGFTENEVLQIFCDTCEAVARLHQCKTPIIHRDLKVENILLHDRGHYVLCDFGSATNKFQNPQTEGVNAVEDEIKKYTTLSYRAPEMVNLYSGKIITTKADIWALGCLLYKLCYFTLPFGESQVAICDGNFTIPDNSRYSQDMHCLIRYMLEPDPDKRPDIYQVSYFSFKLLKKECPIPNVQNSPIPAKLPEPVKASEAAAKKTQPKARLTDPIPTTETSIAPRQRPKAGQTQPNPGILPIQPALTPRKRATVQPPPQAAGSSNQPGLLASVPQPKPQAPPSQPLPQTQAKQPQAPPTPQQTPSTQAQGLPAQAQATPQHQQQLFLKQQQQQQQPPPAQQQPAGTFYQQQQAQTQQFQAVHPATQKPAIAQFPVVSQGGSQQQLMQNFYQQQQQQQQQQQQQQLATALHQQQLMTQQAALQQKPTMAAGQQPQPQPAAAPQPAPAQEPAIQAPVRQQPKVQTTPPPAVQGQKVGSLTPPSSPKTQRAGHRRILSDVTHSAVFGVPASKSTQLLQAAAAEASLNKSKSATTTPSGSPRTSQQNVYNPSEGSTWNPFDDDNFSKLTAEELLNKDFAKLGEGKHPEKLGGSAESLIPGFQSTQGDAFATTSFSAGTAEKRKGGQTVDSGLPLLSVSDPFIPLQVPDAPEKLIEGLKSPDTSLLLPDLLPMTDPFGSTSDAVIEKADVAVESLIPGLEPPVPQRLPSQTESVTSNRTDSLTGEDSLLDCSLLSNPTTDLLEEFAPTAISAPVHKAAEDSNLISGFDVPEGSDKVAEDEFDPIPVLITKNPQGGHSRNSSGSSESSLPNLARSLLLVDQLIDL
- method: Inhibition of AAK1 (unknown origin)
measured_quantity: pIC50
Note on pIC50: it is the negative log10 of concentration, concentration in mol/L.

### Prompt Input Cc1nccc2c1c(=O)n(C)c1cc(OC[C@@H](N)CC(C)C)c(C#N)cc21 , output reported pIC50.
### Response 9.15

###

- method: Metabolic stability in human liver microsomes assessed as parent compound remaining at 0.5 uM incubated for 10 mins in presence of NADPH by LC-MS/MS analysis
- Assay type: ADME, Microsome
- condition_description: read-out: Stability
In this section we review reported remaining at 10 min, 0.5 µM values for a set of molecules.
Form entry: value (%) — number only.

Answered examples (2):
structure_smiles_string: COc1cc(NC(=O)[C@H](N)C(C)C)ccc1-c1cnco1
unit: %
remaining at 10 min, 0.5 µM: 84

structure_smiles_string: CNc1cc(-c2ccc(NC(=O)[C@H](N)CC(C)C)cc2OC)ccn1
unit: %
remaining at 10 min, 0.5 µM: 69

### Prompt Input COc1cc(NC(=O)[C@H](N)CC(C)C)ccc1-c1cn[nH]n1 , output reported remaining at 10 min, 0.5 µM.
### Response 84

###

- method: Efflux ratio of permeability across basolateral to apical membrane over apical to basolateral membrane in human Caco-2 cells
measured_quantity: efflux ratio
Answer using only a numeral; do not append any unit.

### Prompt Input COc1cc(NC(=O)[C@H](N)CC(C)C)ccc1-c1cn[nH]c1 , output reported efflux ratio.
### Response 3.3

###

- method: Metabolic stability in rat liver microsomes assessed as parent compound remaining at 0.5 uM incubated for 10 mins in presence of NADPH by LC-MS/MS analysis
- Assay type: ADME, Microsome
- condition_description: read-out: Stability
remaining at 10 min, 0.5 µM less than 60% is YES; remaining at 10 min, 0.5 µM greater than or equal to 60% is NO.

Some solved cases for reference:
compound: COc1cc(NC(=O)C(CN)CC(C)C)ccc1-c1cnco1 (stereo not drawn)
group_label: NO

compound: COc1cc(NC(=O)[C@H](N)CC2CCCCC2)ccc1-c1cnco1
group_label: NO

compound: COc1cc(NC(=O)[C@H](N)CC(C)C)ccc1-c1ccnnc1
group_label: NO

compound: CC(C)C[C@@H](N)C(=O)Nc1ccc(-c2cnco2)c(F)c1
group_label: NO

compound: CC(C)C[C@@H](N)C(=O)Nc1ccc(-c2cnco2)c(OC(F)F)c1
group_label: NO

compound: CCc1cc(NC(=O)[C@H](N)CC(C)C)ccc1-c1cnco1
group_label: NO

Moving on to another compound below.
### Prompt Please determine if CC(C)C[C@@H](N)C(=O)Nc1ccc(-c2cnco2)c(C#N)c1 is below 60% in terms of remaining at 10 min, 0.5 µM.
### Response YES

###

- method: Metabolic stability in human liver microsomes assessed as parent compound remaining at 0.5 uM incubated for 10 mins in presence of NADPH by LC-MS/MS analysis
- Type: ADME, Microsome
- condition_description: read-out: Stability
measured_quantity: remaining at 10 min, 0.5 µM (%)
Form entry: value (%) — number only.

molecule: CC[C@@H](C)[C@@H](N)C(=O)Nc1ccc(-c2cnco2)c(OC)c1
result_number: 86

molecule: CC(C)C[C@@H](N)C(=O)Nc1ccc(-c2cnco2)c(OC(F)(F)F)c1
result_number: 69

### Prompt Input COc1cc(NC(=O)[C@H](N)C2CCCC2)ccc1-c1cnco1 , output reported remaining at 10 min, 0.5 µM.
### Response 84

### Prompt Input COc1cc(NC(=O)[C@H](N)CC(C)C)ccc1-c1ccncc1 , output reported remaining at 10 min, 0.5 µM.
### Response 91

###

- measured_on: Protein kinase C theta type (Homo sapiens)
- Sequence (Q04759 whole entry): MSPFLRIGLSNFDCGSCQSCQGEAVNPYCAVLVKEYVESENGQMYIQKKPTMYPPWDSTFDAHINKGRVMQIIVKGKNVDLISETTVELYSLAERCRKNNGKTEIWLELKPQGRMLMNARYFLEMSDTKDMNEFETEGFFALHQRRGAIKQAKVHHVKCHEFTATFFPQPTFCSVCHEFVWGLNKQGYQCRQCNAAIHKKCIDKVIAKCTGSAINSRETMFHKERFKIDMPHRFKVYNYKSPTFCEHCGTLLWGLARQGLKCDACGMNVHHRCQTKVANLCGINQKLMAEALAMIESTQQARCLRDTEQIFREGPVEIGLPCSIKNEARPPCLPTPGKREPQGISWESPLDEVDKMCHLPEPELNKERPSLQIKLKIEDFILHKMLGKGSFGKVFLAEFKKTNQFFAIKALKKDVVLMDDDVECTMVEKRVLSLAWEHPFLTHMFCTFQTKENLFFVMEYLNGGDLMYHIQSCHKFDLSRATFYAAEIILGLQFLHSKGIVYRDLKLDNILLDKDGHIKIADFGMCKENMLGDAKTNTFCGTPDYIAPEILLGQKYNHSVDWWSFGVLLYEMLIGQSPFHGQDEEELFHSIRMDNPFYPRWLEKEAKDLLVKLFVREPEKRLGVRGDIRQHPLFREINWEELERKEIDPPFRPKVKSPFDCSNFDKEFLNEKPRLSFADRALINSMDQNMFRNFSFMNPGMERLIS
measured_quantity: pIC50
Note on pIC50: it is the negative log10 of concentration, concentration in mol/L.

### Prompt Under Protein kinase C theta type (Homo sapiens), report pIC50 for CC(C)C[C@@H](N)C(=O)Nc1ccc(-c2cnco2)c(OC(F)F)c1
### Response 5.88

###

- method: Drug concentration in plasma of C57BL6 mouse at 10 mg/kg, sc
- Type: ADME, organism-based
- condition_description: in vivo
measured_quantity: concentration (µM)
Form entry: value (µM) — number only.

### Prompt Input CC(C)C[C@@H](N)C(=O)Nc1ccc(-c2cnco2)c(OC(F)F)c1 , output reported concentration.
### Response 9.1
